# System: cyanosis of ears and extremities induced by compound 48/80 in rats
# procedure.text: Cyanosis of ears and extremities induced by compound 48/80 (Test 2)
# Assay type: in vivo, rat (male, Wistar inbred strain)
# recorded.conditions: Rattus norvegicus, po, 5 min; read-out: Cyanosis ED50 (dose at which cyanosis of ears and extremities is completely absent in 50% of the test rats)
observation.type: ED50 (mg/kg)

molecule: O=C(c1ccc(F)cc1)C1CCN(CCN2C(=O)Nc3ccc(Cl)cc3C2c2ccccc2)CC1 (stereo not shown)
observed: 0.63

molecule: Nc1cc(F)ccc1C(=O)C1CCN(CCn2c(=O)[nH]c3ccccc3c2=O)CC1
observed: 0.16

molecule: O=c1[nH]c2ccccc2c(=O)n1CCN1CCC(C2(c3ccc(F)cc3)OCCO2)CC1
observed: 0.16

molecule: Cc1nc2ccccc2c(=O)n1CCN1CCC(C(=O)c2ccc(F)cc2)CC1
observed: 0.16

molecule: O=C(c1ccc(F)cc1)C1CCN(CCCn2c(=S)[nH]c3ccccc3c2=O)CC1
observed: 0.63

molecule: O=C(c1ccc(F)cc1)C1CCN(CCn2c(=O)[nH]c3ccccc3c2=O)CC1
observed: 0.08

molecule: O=C1NC(CCN2CCC(C(=O)c3ccc(F)cc3)CC2)Nc2ccccc21 (stereo not shown)
observed: 1.25

molecule: COc1ccc2c(=O)n(CCN3CCC(C(=O)c4ccc(F)cc4)CC3)c(=O)[nH]c2c1
observed: 0.16

molecule: Cn1c(=O)n(CCN2CCC(C(=O)c3ccc(F)cc3)CC2)c(=O)c2ccccc21
observed: 0.16

molecule: O=C(c1ccc(F)cc1)C1CCN(CCn2c(=O)[nH]c3cc(Cl)ccc3c2=O)CC1
observed: 1.25

molecule: Cc1ccc2[nH]c(=O)n(CCN3CCC(C(=O)c4ccc(F)cc4)CC3)c(=O)c2c1
observed: 0.63

molecule: O=C(c1ccc(F)cc1)C1CCN(CCn2c(=O)[nH]c3cc(F)ccc3c2=O)CC1
observed: 0.16

molecule: O=c1[nH]c2ccccc2c(=O)n1CCN1CCC(C(O)c2ccc(F)cc2)CC1 (stereo not shown)
observed: 1.25

molecule: O=C(c1ccc(F)cc1)C1CCN(CCN2C(=O)Nc3ccccc3C2c2ccccc2)CC1 (stereo not shown) [drawing 34: R^6=C6H5, Alk=(CH2)2, Ar=4-FC6H4]
observed: 0.08

molecule: O=C(c1ccc(F)cc1)C1CCN(CCn2c(=S)[nH]c3ccccc3c2=O)CC1
observed: 0.04

molecule: O=C(c1ccc(F)cc1)C1CCN(CCn2cnc3ccccc3c2=O)CC1
observed: 0.31
